In this section, each of the molecules is paired with its reported IC50.
Biological target: rhCatC (Homo sapiens (Human))
Assay: In vitro enzyme activity experiment of rhCatC (AMC fluorescence assay)
Format: biochemical
Details: rhCatC enzyme, substrate H-Gly-Arg-AMC; read-out: Biological activity IC50
property measured: IC50 (nM)

- CN1CCc2cc(C[C@@H](C#N)NC(=O)[C@@H]3CNCCCO3)ccc2C1 [Compound 9]: 1740
- N#CC(Cc1cc2c(cc1F)-c1ccc(S(=O)(=O)N3CCC3)cc1CO2)NC(=O)[C@@H]1CNCCCO1 (stereo partly shown) [Compound 35]: 15
- N#C[C@H](Cc1ccc2c(c1)CN(c1ccccc1)C2=O)NC(=O)C1(N)CCOCC1 [Compound 1]: 42
- N#C[C@H](Cc1ccc2c(c1)OCCC2)NC(=O)C1(N)CCOCC1 [Compound 10]: 74
- CN1Cc2cc(C#N)ccc2-c2cc(F)c(C[C@@H](C#N)NC(=O)[C@@H]3CNCCCO3)cc2C1=O [Compound 41]: 30.5
- N#Cc1ccc2c(c1)COc1cc(CC(C#N)NC(=O)C3(N)CCOCC3)ccc1-2 (stereo not shown) [Compound 25]: 3.1
- CN1Cc2cc(F)ccc2-c2ccc(C[C@@H](C#N)NC(=O)C3(N)CCOCC3)cc2C1=O [Compound 40]: 3.7

----------
Target: CatC (Homo sapiens (Human))
Sequence (P53634 25-134): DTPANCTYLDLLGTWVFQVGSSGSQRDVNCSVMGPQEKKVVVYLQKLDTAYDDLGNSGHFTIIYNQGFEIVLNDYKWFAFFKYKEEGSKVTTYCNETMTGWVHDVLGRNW
Sequence (P53634 231-394): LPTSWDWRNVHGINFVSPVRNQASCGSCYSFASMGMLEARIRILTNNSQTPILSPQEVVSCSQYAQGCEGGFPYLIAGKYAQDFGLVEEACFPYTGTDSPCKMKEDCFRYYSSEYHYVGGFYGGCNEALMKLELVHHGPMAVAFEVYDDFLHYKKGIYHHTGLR
Sequence (P53634 395-463): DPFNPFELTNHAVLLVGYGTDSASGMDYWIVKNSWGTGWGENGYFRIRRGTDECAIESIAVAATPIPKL
Test: In vitro CatC cell activity experiment in U937 cell line
Assay type: cell-based
pIC50: −log10 of the molar value. Structures can show the parent of a compound that is named as a salt.
property measured: pIC50

- CS(=O)(=O)c1ccc2c(c1)COc1cc(C[C@@H](C#N)NC(=O)[C@@H]3CNCCCO3)c(F)cc1-2: 8.02
- N#Cc1ccc2c(c1)COc1cc(CC(C#N)NC(=O)[C@@H]3CNCCCO3)ccc1-2 (stereo partly shown): 7.06
- N#Cc1ccc2c(c1)COc1cc(CC(C#N)NC(=O)C3(N)CCOCC3)ccc1-2 (stereo not shown): 8.26
- N#CC(Cc1cc2c(cc1F)-c1ccc(F)cc1CO2)NC(=O)[C@@H]1CNCCCO1 (stereo partly shown): 7.64
- N#C[C@H](Cc1ccc2c(c1)OCc1cc(F)c(F)cc1-2)NC(=O)C1(N)CCOCC1: 8.21
- N#C[C@H](Cc1cc2c(cc1F)-c1ccc(F)cc1CO2)NC(=O)[C@@H]1CNCCCO1: 8.11
- N#CC(Cc1ccc2c(c1)OCc1cc(F)ccc1-2)NC(=O)C1(N)CCOCC1 (stereo not shown) [Compound 22, formate]: 8.26
- N#Cc1ccc2c(c1)-c1cc(F)c(CC(C#N)NC(=O)[C@@H]3CNCCCO3)cc1OC2 (stereo partly shown): 7.42
- N#CC(Cc1cc2c(cc1F)-c1ccc(F)cc1CO2)NC(=O)C1(N)CCOCC1 (stereo not shown): 8.37
- N#Cc1ccc2c(c1)COc1cc(C[C@@H](C#N)NC(=O)[C@@H]3CNCCCO3)c(F)cc1-2: 8.21
